targetDesc: BRD4 (BDI_K57-E168) (Homo sapiens, UniProt O60885)
Construct: BD1: amino acids K57-E168
assay: TR-FRET bromodomain binding assay, first bromodomain of BRD4
measurementSetup: His-tagged BD1, 100 nM Alexa647 probe; TR-FRET protocol A-E given per row
measurementName: Ki (nM)

Please review the entries below; each comes with its answer.
[ask] What reported Ki corresponds to Cn1cc(-c2cc(CNCCC(C)(C)C)ccc2Oc2ccc(F)cc2F)c2cc[nH]c(=O)c21 [Example 114] on BRD4 (BDI_K57-E168) (Homo sapiens, UniProt O60885)?
[reply] 1410

[ask] Quick check: Ki on BRD4 (BDI_K57-E168) (Homo sapiens, UniProt O60885), item CCS(=O)(=O)Nc1ccc(OC2COC2)c(-c2cn(C)c3c(=O)[nH]ccc23)c1 [Example 10] ?
[reply] 18

[ask] What Ki appears in the records for this molecule with BRD4 (BDI_K57-E168) (Homo sapiens, UniProt O60885)? CCS(=O)(=O)Nc1ccc(Oc2ccc(Cl)cc2)c(-c2cn(C)c3c(=O)[nH]ccc23)c1 [Example 5]
[reply] 10

[ask] Kindly state the measured Ki obtained for Cn1cc(-c2cc(CS(C)(=O)=O)cnc2Cl)c2cc[nH]c(=O)c21 [Example 143] with BRD4 (BDI_K57-E168) (Homo sapiens, UniProt O60885).
[reply] 446

[ask] Form field - read-out: Ki; system: BRD4 (BDI_K57-E168) (Homo sapiens, UniProt O60885); submitted item: Cn1cc(-c2cc(S(C)(=O)=O)ccc2NCC2CC2)c2cc[nH]c(=O)c21 [Example 44]
[reply] 14

1: Cn1cc(-c2cc(CNC3CCNCC3)ccc2Oc2ccc(F)cc2F)c2cc[nH]c(=O)c21 [Example 112]
2: CCS(=O)(=O)c1ccc(Oc2ccc(C)cc2Cl)c(-c2cn(C)c3c(=O)[nH]ccc23)c1 [Example 73]
[ask] // compare measured Ki, left 1 , right 2 , return larger Answer by quoting the chosen item's label.
[reply] 1
(1: 1050 nM, 2: 43 nM)
